Hey, just so you know, these numbers are from patent US20260209345A1.

# subject.of.test: T1, recombinant LILRA3 (human, UniProt Q8N6C8 24-439)
# T1 construct: whole entry named; also called LILRA3 ECD; LILA3
# experimental.details: BLI, IgG on AHC sensor, ECD in solution
Items are presented alongside their recorded Kd.
Numeric answer only, unit nM assumed.

binder	Kd / nM
A-008 (antibody, V domains shown, tested as IgG) VH: QVQLVQSGAEVKKPGSSVKVSCKASGGTFAESAILWVRQAPGQGLEWMGGIVPSFYSANYAQKFQGRVTITADESTSTAYMELSSLRSEDTAVYYCAKDLGTYSSGWPYYYGMDVWGQGTTVTVSS VL: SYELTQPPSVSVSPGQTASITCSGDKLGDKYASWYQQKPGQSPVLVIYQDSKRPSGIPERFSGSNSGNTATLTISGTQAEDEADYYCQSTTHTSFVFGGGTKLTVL	355

Problem: Provide one value: measured Kd of A-005 (antibody, V domains shown, tested as IgG) VH: QVQLVQSGAEVKKPGSSVKVSCKASGGTFTIYAINWVRQAPGQGLEWMGGIIPGFHSANYAQKFQGRVTITADESTSTAYMELSSLRSEDTAVYYCAKDLGTYSSGWPYYYGMDVWGQGTTVTVSS VL: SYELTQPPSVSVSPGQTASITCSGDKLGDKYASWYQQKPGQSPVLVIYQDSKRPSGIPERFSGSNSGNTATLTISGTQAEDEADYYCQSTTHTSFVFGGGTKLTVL
Result: 161
